assay: yeast display, Sf9 membrane polyspecificity reagent, FACS + sequencing; frameworks hold sequencing errors
measurementType: polyreactivity (PSR sort gate)

Examples with answers:
QVHLVESGGGLVQAGGSLRLSCAASGSTFAANAMGWYRQAPGKERELVAAITSSGGSTYYADSVKGRFTISRDNAKNTVYLQMNSLKPEDTAVYYCKKDIERYFRIYDSWGQGTQVTVSS : low polyreactivity
QVQLVESGGGLVQAGGSLRLSCAASGSTSRQYAMGWYRQAPGKERELVAAITWSGASTNYADSVKGRFTISRDNAKNTVYLQMNSLKREDTAVYYCAAYRWVYPDVIYDYWGQGTQVTVSS : high polyreactivity
QVQLVESGGGLVQAGGSLRLSCAASGSTFSLYAMGWYRQAPGKERELVAAITRSGGGTHYADSVKGRFTISRDNAKNTVYLQMNSLKPEDTAVYYCAKRQSGYRYDYWGQGTEVTVSS : low polyreactivity
QVQLVESGGGLVQAGGSLRLSCAASGRIFDIYAMGWYRQAPGKERELVAAITNSGVSTYYADSVKGRFTISRDNAKNTVYLQMNSLKPEDTAVYYCNAGDFERAVVVFIQHGGYYWGQGTQVTVSS : low polyreactivity
QVQIVESGGGLVQAAGSLRLSCAASGRTFGYYAMGWYREAPGKEREMVAAITSCGRNTYYADTVKGRFTISRDNAKNNVYLQMNRLKPEDTAVYYCNTVYHAYWGKCVNYWGQGTQVTVSS : high polyreactivity
QVQLVESGGGLVQAGGSLRLSCAASGSTFDGNAMGWYRQAPGTERELVATINSDDSKNYADSVKGRFTISRDNAKNTVYLQMNSLKPEDTAVYYCAARLYVTPILSYVERYTNDYWGQGTQVTVSS : low polyreactivity

## Task I have this sequence here, `QVQLVETGGGLVQAGGSLRLSCAASGRTFEYNAMGWYRQAPGKERELVATIRYSGTSTYADSVKGRFTISRDNAKNPVYLQMNSQKPEDTAVYYCAKQVRYYGYKYNYWGQGTQVTVSS` , and I need its recorded polyreactivity (PSR sort gate).
## Result high polyreactivity

Reference source: the nanobody polyreactivity screen of Harvey et al. (2022)
